Test system: MOLM14
Assay Details: cell viability relative to vehicle control; higher = less cytotoxic;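 note: after 48 h exposure read by CellTiter-Glo luminescence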
Particulars: 10 µM; SRSF2 genotype: SRSF2 wt/wt
Property: cell viability
Just so you know, I need the unit written after the number.

Solved cases (3 shown):
[
  {
    "Compound": "CCOc1cc2ncc(C#N)c(Nc3ccc(OCc4ccccn4)c(Cl)c3)c2cc1NC(=O)/C=C/CN(C)C",
    "cell viability": "53.4%"
  },
  {
    "Compound": "CC(C)Oc1ccc(-c2nc(-c3cccc4c3CC[C@@H]4NCCO)no2)cc1C#N [Ozanimod (RPC1063)]",
    "cell viability": "40.5%"
  },
  {
    "Compound": "C=CCc1ccc(O)c(-c2ccc(O)c(CC=C)c2)c1",
    "cell viability": "98.9%"
  }
]

I am curious: what cell viability value has been reported for CC(C)=CCC[C@](C)(O[C@@H]1O[C@H](CO)[C@@H](O)[C@H](O)[C@H]1O)[C@H]1CC[C@]2(C)[C@@H]1[C@H](O)C[C@@H]1[C@@]3(C)CC[C@H](O[C@@H]4O[C@H](CO)[C@@H](O)[C@H](O)[C@H]4O[C@@H]4O[C@H](CO)[C@@H](O)[C@H](O)[C@H]4O)C(C)(C)[C@@H]3CC[C@]12C [Ginsenoside Rd] ?
94.5%

====

Test system: OCI-AML2
Assay Details: cell viability relative to vehicle control; higher = less cytotoxic
Particulars: 10 µM; SRSF2 genotype: P95H/wt
Property: cell viability (%)
Write the value in % as a bare number.

Solved cases (3 shown):
[
  {
    "Compound": "Cc1c(C)c2c(c(C)c1OC(=O)CCC(=O)OCCOCCOCCO)CCC(C)(CCCC(C)CCCC(C)CCCC(C)C)O2 (centres undefined)",
    "Assay System": "OCI-AML2",
    "Value Unit": "%",
    "Value Reported": 59.5
  },
  {
    "Compound": "C=CC(=O)Nc1ccc2ncnc(Nc3cccc(Br)c3)c2c1",
    "Assay System": "OCI-AML2",
    "Value Unit": "%",
    "Value Reported": 50
  },
  {
    "Compound": "CCc1c(C(=O)NCCc2ccc(N3CCCCC3)cc2)[nH]c2ccc(Cl)cc12",
    "Assay System": "OCI-AML2",
    "Value Unit": "%",
    "Value Reported": 112
  }
]

I am curious: what cell viability value has been reported for C=CC(=O)N1CCC(Oc2cc3c(Nc4ccc(Cl)c(Cl)c4F)ncnc3cc2OC)CC1 [Poziotinib (HM781-36B)] ?
73.7

====

Tested on: MOLM14
Assay Details: cell viability relative to vehicle control; higher = less cytotoxic
Particulars: 10 µM; SRSF2 genotype: SRSF2 P95H/wt
Where a name gives a salt, the structure may show the parent alone.
Property: cell viability (%)
Write the value in % as a bare number.

[
  {
    "Compound": "Cc1cc(Nc2ncnc3ccc(NC4=NC(C)(C)CO4)cc23)ccc1Oc1ccn2ncnc2c1",
    "Assay System": "MOLM14",
    "Property": "cell viability",
    "Value Reported": 88.2
  },
  {
    "Compound": "CCCCCCCCCCCCCCCC(=O)O[C@@H]1[C@@H](O)[C@@H](O)[C@@H]([C@H](NC(=O)[C@@H]2C[C@@H](CCC)CN2C)[C@H](C)Cl)O[C@@H]1SC [Clindamycin palmitate HCl]",
    "Assay System": "MOLM14",
    "Property": "cell viability",
    "Value Reported": 101
  },
  {
    "Compound": "C[C@H]1O[C@@H](Oc2c(-c3cc(O)c(O)c(O)c3)oc3cc(O)cc(O)c3c2=O)[C@@H](O)[C@@H](O)[C@@H]1O",
    "Assay System": "MOLM14",
    "Property": "cell viability",
    "Value Reported": 104
  },
  {
    "Compound": "O=C(O)c1cc2cccc([N+](=O)[O-])c2[nH]1",
    "Assay System": "MOLM14",
    "Property": "cell viability",
    "Value Reported": 106
  },
  {
    "Compound": "CC(=O)N1CCN(c2ccc(NC(=O)Cc3cnc(-c4ccnc(F)c4)c(C)c3)nc2)CC1",
    "Assay System": "MOLM14",
    "Property": "cell viability",
    "Value Reported": 80.4
  }
]

I am curious: what cell viability value has been reported for CO/N=C(\C(=O)N[C@@H]1C(=O)N2C(C(=O)O)=C(CSC(=O)c3ccco3)CS[C@H]12)c1csc(N)n1 [Ceftiofur] ?
97

Here is the next compound: CC(C)=CCC/C(C)=C/CC/C(C)=C/CCC(=O)OC/C=C(\C)CCC=C(C)C [Gefarnate]
96.4

Here is the next compound: C[C@H]1COC2=C1C(=O)C(=O)c1c2ccc2c1CCCC2(C)C
58.6
